Measured values drawn from ChEMBL document CHEMBL1127465 for this set.

Listed next: entries and their corresponding pKi.
- Tested Target: Human immunodeficiency virus type 1 protease (Human immunodeficiency virus 1)
- Assay Info: Apparent inhibition constant against recombinant HIV-1 protease
In simple prose, pKi is minus the logarithm base ten of a concentration in moles per litre.

Recorded pKi, per entry:
# Compound, Tested Target, Measured Attribute, Measured Number
records = [
    ("CCC(=O)c1cnc([C@H](Cc2ccccc2)C[C@H](O)[C@H](Cc2ccccc2)NC(=O)OC(C)(C)C)[nH]1", "Human immunodeficiency virus type 1 protease (Human immunodeficiency virus 1)", "pKi", 7.04),
    ("CCCC(=O)c1c[nH]c([C@H](Cc2ccccc2)C[C@H](O)[C@H](Cc2ccccc2)NC(=O)OC(C)(C)C)n1", "Human immunodeficiency virus type 1 protease (Human immunodeficiency virus 1)", "pKi", 6.82),
    ("CC(C)C(=O)c1cnc([C@H](Cc2ccccc2)C[C@H](O)[C@H](Cc2ccccc2)NC(=O)OC(C)(C)C)[nH]1", "Human immunodeficiency virus type 1 protease (Human immunodeficiency virus 1)", "pKi", 7.08),
]

We next turn to a different compound, shown below.
INPUT: Reported pKi, compound CC(C)(C)OC(=O)N[C@@H](Cc1ccccc1)C(=O)C(O)CN[C@@H](Cc1ccccc1)C(=O)NCC(N)=O (some centres undefined) : ____
OUTPUT: 6.92
